B1: tRNA (parent)
chain: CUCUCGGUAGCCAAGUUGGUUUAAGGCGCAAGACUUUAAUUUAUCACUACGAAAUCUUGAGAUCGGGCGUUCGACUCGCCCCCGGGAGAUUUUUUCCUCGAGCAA

Variants of: B1
Test: nonsense suppression (GFP-seq) (ratio to wild type); higher = more function; SUP4oc tRNA, yeast GFP reporter sort-seq
Variants at the floor of the assay were thinned out.
endpoint name: nonsense suppression

• U16A A33G = 0.0423
• C12U A24U = 0.118
• A31G U35A = 0.0292
• U17A G32C U71G = 0.0947
• A62G G78U = 0.0339
• U16G U17C C72A = 0.27
• C3U A54C = 0.079
• U8C U20A = 0.0281
• A23G A60C = 0.241
• A13U A31G = 1.22
• C27U C75A = 0.641
• C12U G25A = 1.19
• A9U G88A = 0.0329
• A9U = 0.802
• U20G G61U = 0.874
